# System: MDA-MB-231
# Run Description: relative cell viability, compound + RSL3, vs DMSO (fraction of DMSO control); higher = less growth inhibition
# Experimental Parameters: 72 h
Provide the recorded relative cell viability for the entries that follow.
Numbers only.

Below, 5 molecules whose answers are already recorded.
Molecule | relative cell viability
C[C@@]12C[C@@H](c3ccoc3)OC(=O)[C@@H]1CC[C@]1(C)[C@H]2[C@@H]2C=C[C@@]1(O)C(=O)O2 [Columbin] + COC(=O)c1ccc([C@H]2c3[nH]c4ccccc4c3C[C@H](C(=O)OC)N2C(=O)CCl)cc1 | 0.642
O=C(Oc1ccc([N+](=O)[O-])cc1)N1CCN(Cc2cccc(Oc3ccccc3)c2)CC1 + COC(=O)c1ccc([C@H]2c3[nH]c4ccccc4c3C[C@H](C(=O)OC)N2C(=O)CCl)cc1 | 0.473
O=C1C=CC[C@@H]2[C@H]3CCCN4CCC[C@@H](CN12)[C@@H]34 [Sophocarpine] + COC(=O)c1ccc([C@H]2c3[nH]c4ccccc4c3C[C@H](C(=O)OC)N2C(=O)CCl)cc1 | 0.502
O=C(CBr)c1ccc(O)cc1 [PTP Inhibitor I] + COC(=O)c1ccc([C@H]2c3[nH]c4ccccc4c3C[C@H](C(=O)OC)N2C(=O)CCl)cc1 | 0.577
NNC(=O)c1nn(Cc2ccc(Cl)cc2Cl)c2ccccc12 [Adjudin] + COC(=O)c1ccc([C@H]2c3[nH]c4ccccc4c3C[C@H](C(=O)OC)N2C(=O)CCl)cc1 | 0.45

For every listed record, write down its relative cell viability.
1. CCc1c(C(=O)C(N)=O)c2c(OCC(=O)O)cccc2n1Cc1ccccc1 [Varespladib] + COC(=O)c1ccc([C@H]2c3[nH]c4ccccc4c3C[C@H](C(=O)OC)N2C(=O)CCl)cc1
2. O=C(Oc1ccc([N+](=O)[O-])cc1)N1CCC(C(O)(c2ccc3c(c2)OCO3)c2ccc3c(c2)OCO3)CC1 + COC(=O)c1ccc([C@H]2c3[nH]c4ccccc4c3C[C@H](C(=O)OC)N2C(=O)CCl)cc1
3. Cc1cc(SCc2sc(-c3ccc(C(F)(F)F)c(F)c3)nc2C)ccc1OCC(=O)O + COC(=O)c1ccc([C@H]2c3[nH]c4ccccc4c3C[C@H](C(=O)OC)N2C(=O)CCl)cc1

Given back:
1: 0.574; 2: 0.618; 3: 0.668

* * *

# System: MDA-MB-231
# Run Description: relative cell viability, compound + erastin, vs DMSO (fraction of DMSO control); higher = less growth inhibition
# Experimental Parameters: 72 h
Quantity: relative cell viability

Below, 6 compounds whose answers are already recorded.
Compound | Assayed Target | relative cell viability
CCOC(=O)c1c(NC(=O)CN2CCN(C(=O)c3ccco3)CC2)sc2c1CCC2 + CCOc1ccccc1-n1c(C(C)N2CCN(C(=O)COc3ccc(Cl)cc3)CC2)nc2ccccc2c1=O [erastin] | MDA-MB-231 | 0.839
O=C(O)C(=O)Nc1sc2c(c1C(=O)O)CCNC2 + CCOc1ccccc1-n1c(C(C)N2CCN(C(=O)COc3ccc(Cl)cc3)CC2)nc2ccccc2c1=O [erastin] | MDA-MB-231 | 0.635
COc1ccc(N(C(=O)Nc2c(C)cccc2C)c2cc(Nc3ccc(N4CCN(C)CC4)cc3)ncn2)c(OC)c1 + CCOc1ccccc1-n1c(C(C)N2CCN(C(=O)COc3ccc(Cl)cc3)CC2)nc2ccccc2c1=O [erastin] | MDA-MB-231 | 0.852
COc1cc(C(C)=O)ccc1O [Acetovanillone] + CCOc1ccccc1-n1c(C(C)N2CCN(C(=O)COc3ccc(Cl)cc3)CC2)nc2ccccc2c1=O [erastin] | MDA-MB-231 | 0.666
Cc1cc(=O)oc2c(O)c(O)ccc12 [7,8-Dihydroxy-4-methylcoumarin] + CCOc1ccccc1-n1c(C(C)N2CCN(C(=O)COc3ccc(Cl)cc3)CC2)nc2ccccc2c1=O [erastin] | MDA-MB-231 | 0.881
COc1ccc(C(=O)/C=C/c2ccccc2)cc1 [4'-Methoxychalcone] + CCOc1ccccc1-n1c(C(C)N2CCN(C(=O)COc3ccc(Cl)cc3)CC2)nc2ccccc2c1=O [erastin] | MDA-MB-231 | 0.54

For every listed record, write down its relative cell viability.
1. CCC1=N[C@H]2C[C@@]3(C(=O)N(OC)c4ccccc43)[C@H]3CC1[C@@H]2CO3 [Humantenmine] + CCOc1ccccc1-n1c(C(C)N2CCN(C(=O)COc3ccc(Cl)cc3)CC2)nc2ccccc2c1=O [erastin]
2. CC1(C)CC[C@]2(C(=O)O[C@@H]3O[C@H](CO)[C@@H](O)[C@H](O)[C@H]3O)CC[C@]3(C)C(=CC[C@@H]4[C@@]5(C)CC[C@H](O[C@@H]6O[C@H](C(=O)O)[C@@H](O)[C@H](O)[C@H]6O[C@@H]6O[C@H](CO)[C@@H](O)[C@H](O)[C@H]6O)C(C)(C)[C@@H]5CC[C@]43C)[C@@H]2C1 [Ginsenoside Ro] + CCOc1ccccc1-n1c(C(C)N2CCN(C(=O)COc3ccc(Cl)cc3)CC2)nc2ccccc2c1=O [erastin]
3. O=S(=O)(c1ccccc1)N(CC(F)(F)F)c1ccc(C(O)(C(F)(F)F)C(F)(F)F)cc1 + CCOc1ccccc1-n1c(C(C)N2CCN(C(=O)COc3ccc(Cl)cc3)CC2)nc2ccccc2c1=O [erastin]

Given back:
[0.63, 0.726, 0.45]

* * *

# Test system: HCC1937
# Run Description: relative cell viability, compound alone, vs DMSO (fraction of DMSO control); higher = less growth inhibition
# Experimental Parameters: 72 h
Provide the recorded relative cell viability for the entries that follow.
Answers are plain numbers.

Compound | Quantity | Result Value
C[C@]12CC[C@@H](O)C[C@@H]1CC[C@@H]1[C@@H]2CC[C@]2(C)C(=O)CC[C@@H]12 | relative cell viability | 1.33
CCc1c(C(=O)C(N)=O)c2c(OCC(=O)O)cccc2n1Cc1ccccc1 | relative cell viability | 0.797

Lab note: next compound to report on.
Asked: Look up relative cell viability of O=C1C=CC[C@@H]2[C@H]3CCCN4CCC[C@@H](CN12)[C@@H]34 and report it.
Given back: 0.762

* * *

# Test system: MDA-MB-231
# Run Description: relative cell viability, compound + erastin, vs DMSO (fraction of DMSO control); higher = less growth inhibition
# Experimental Parameters: 72 h
Counter-ions that a name gives are not always drawn.
Quantity: relative cell viability

Compound | Assayed Target | Result Value
c1cc(-c2cnn3cc(-c4ccc(OCCN5CCCCC5)cc4)cnc23)ccn1 [Dorsomorphin] + CCOc1ccccc1-n1c(C(C)N2CCN(C(=O)COc3ccc(Cl)cc3)CC2)nc2ccccc2c1=O | MDA-MB-231 | 0.405
CN(C)CCOC(=O)COc1ccc(Cl)cc1 [Meclofenoxate hydrochloride] + CCOc1ccccc1-n1c(C(C)N2CCN(C(=O)COc3ccc(Cl)cc3)CC2)nc2ccccc2c1=O | MDA-MB-231 | 0.81

For every listed record, write down its relative cell viability.
1. CC(C)(Oc1ccc(CCNC(=O)c2ccc(Cl)cc2)cc1)C(=O)O [Bezafibrate] + CCOc1ccccc1-n1c(C(C)N2CCN(C(=O)COc3ccc(Cl)cc3)CC2)nc2ccccc2c1=O
2. NNC(=O)c1nn(Cc2ccc(Cl)cc2Cl)c2ccccc12 [Adjudin] + CCOc1ccccc1-n1c(C(C)N2CCN(C(=O)COc3ccc(Cl)cc3)CC2)nc2ccccc2c1=O
3. Cc1c(C(=O)NN2CCOCC2)nn(-c2ccc(Cl)cc2Cl)c1-c1ccc(I)cc1 + CCOc1ccccc1-n1c(C(C)N2CCN(C(=O)COc3ccc(Cl)cc3)CC2)nc2ccccc2c1=O
4. CC(C)OC(=O)C(C(=O)OC(C)C)=C1SC=CS1 [Malotilate] + CCOc1ccccc1-n1c(C(C)N2CCN(C(=O)COc3ccc(Cl)cc3)CC2)nc2ccccc2c1=O
5. Cc1c2c(=O)n(-c3ccccc3Cl)[nH]c2cc(=O)n1Cc1ccccn1 + CCOc1ccccc1-n1c(C(C)N2CCN(C(=O)COc3ccc(Cl)cc3)CC2)nc2ccccc2c1=O
6. CS(=O)(=O)c1ccc(-c2nnc(/C=C/c3nnc(-c4ccc(C#N)cc4)o3)n2-c2ccccc2Cl)nc1 + CCOc1ccccc1-n1c(C(C)N2CCN(C(=O)COc3ccc(Cl)cc3)CC2)nc2ccccc2c1=O
7. Cn1nc(C(=O)N(Cc2ccccc2)Cc2ccc(C(=O)O)cc2)c2c1-c1cc(Cl)ccc1OC2 [Nidufexor] + CCOc1ccccc1-n1c(C(C)N2CCN(C(=O)COc3ccc(Cl)cc3)CC2)nc2ccccc2c1=O
8. CCN(CC)c1ccc(C=NNC(=O)c2ccncc2)c(O)c1 + CCOc1ccccc1-n1c(C(C)N2CCN(C(=O)COc3ccc(Cl)cc3)CC2)nc2ccccc2c1=O

Given back:
1: 0.937; 2: 0.711; 3: 0.325; 4: 0.644; 5: 0.784; 6: 0.668; 7: 0.771; 8: 0.677

* * *

# System: HCC1937
# Run Description: relative cell viability, compound + erastin, vs DMSO (fraction of DMSO control); higher = less growth inhibition
# Experimental Parameters: 72 h
Provide the recorded relative cell viability for the entries that follow.
Answers are plain numbers.

Compound | relative cell viability
O=C(NN1CCCCC1)c1nn(-c2ccc(Cl)cc2Cl)c(-c2ccc(C#Cc3ccc(C(F)(F)F)cc3)s2)c1CNS(=O)(=O)N1CCCC1 + CCOc1ccccc1-n1c(C(C)N2CCN(C(=O)COc3ccc(Cl)cc3)CC2)nc2ccccc2c1=O [erastin] | 0.496

Asked: Look up relative cell viability of Cc1c(C)c2c(c(C)c1O)CCC(C)(COc1ccc(CC3SC(=O)NC3=O)cc1)O2 (configuration not stated) [Troglitazone] + CCOc1ccccc1-n1c(C(C)N2CCN(C(=O)COc3ccc(Cl)cc3)CC2)nc2ccccc2c1=O [erastin] and report it.
Given back: 0.641
